Value source: ChEMBL document CHEMBL1128605

# Test System: Glutamate NMDA receptor
# Assay Remarks: In vitro inhibition of glutamate induced neuronal death in primary cultures of rat hippocampal neurons.
Parameter: IC50. Scope: all listed entries.

Considering "COC1(Cc2ccccc2)CCN([C@@H](C)[C@@H](O)c2ccc(O)cc2)CC1" , its IC50 with Glutamate NMDA receptor was recorded as > 10000 nM

Considering "C[C@@H]([C@@H](O)c1ccc(O)cc1)N1CCN(C(=O)c2ccccc2)CC1" , its IC50 with Glutamate NMDA receptor was recorded as > 10000 nM

Considering "C[C@@H]([C@@H](O)c1ccccc1)N1CCC(O)(c2ccccc2)CC1" , its IC50 with Glutamate NMDA receptor was recorded as > 1000 nM

Considering "C[C@@H]([C@@H](O)c1ccc(F)cc1)N1CCC(O)(c2ccccc2)CC1" , its IC50 with Glutamate NMDA receptor was recorded as > 1000 nM

Considering "C[C@@H]([C@@H](O)c1ccc(Cl)cc1)N1CCC(O)(c2ccccc2)CC1" , its IC50 with Glutamate NMDA receptor was recorded as > 1000 nM
